- PROCEDURE_DETAILS: Plasma protein binding assay (PPB), equilibrium dialysis
- Assay type: in vitro ADME
- SETTINGS: bovine, 10% FCS in PBS, read-out: PPB 10% FCS (% fu)
OBSERVABLE: fraction unbound

C[C@H](Oc1nc(-c2onc3c2CCC[C@@]32CCCc3sc(N)c(C#N)c32)nc2c1n(C)c(=O)n2[C@@H]1CC2CCC1O2)[C@@H]1CCCN1C (some centres unmarked): 0.2
C[C@H](Oc1nc(-c2onc3c2CCC[C@@]32CCCc3sc(N)c(C#N)c32)nc2c1ncn2[C@@H]1CCOC1)[C@@H]1CCCN1C: 0.34
CO[C@H]1CCN(C)[C@@H]1[C@H](C)Oc1nc(-c2onc3c2CCC[C@@]32CCCc3sc(N)c(C#N)c32)nc2c1CN(C1COC1)C[C@]21CCOC1: 0.28

(a) C[C@H](Oc1nc(-c2onc3c2CCC[C@@]32CCCc3sc(N)c(C#N)c32)nc2c1COC[C@]21CCOC1)[C@@H]1CCCN1C
(b) CO[C@H]1CCN(C)[C@@H]1[C@H](C)Oc1nc(-c2noc3c2CCC[C@@]32CCCc3sc(N)c(C#N)c32)nc2c1n(C)c(=O)n2[C@@H]1CCCOC1
Q: Please tell me which of the two, a or b , has the higher reported fraction unbound value. To answer, give the label that identifies your chosen option.
Result: a

---

- Tested on: NCI-H358 cells
- PROCEDURE_DETAILS: NCI-H358 CTG proliferation assay (120 h) (NSCLC, G12C)
- Assay type: cell-based
- SETTINGS: Homo sapiens
pIC50: −log10 of the molar value.
OBSERVABLE: pIC50

Some entries whose results are on file:
C[C@H](Oc1nc(-c2onc3c2CCC[C@@]32CCCc3sc(N)c(C#N)c32)nc2c1cnn2[C@@H]1CCOC1)[C@@H]1CCCN1C: 7.15
CO[C@H]1CCN(C)[C@@H]1[C@H](C)Oc1nc(-c2noc3c2CCC[C@@]32CCCc3sc(N)c(C#N)c32)nc2c1n(C)c(=O)n2[C@@H]1CCCOC1: 8.10
CO[C@@H]1C[C@@H]([C@H](C)Oc2nc(-c3noc4c3CCC[C@@]43CCCc4sc(N)c(C#N)c43)nc3c2CN(C2COC2)C[C@]32CCOC2)N(C)C1: 8.40

(I) C[C@H](Oc1nc(-c2noc3c2CCC[C@@]32CCCc3sc(N)c(C#N)c32)nc2c1COC[C@]21CCOC1)[C@@H]1CCCN1C
(II) C[C@H](Oc1nc(-c2onc3c2CCC[C@@]32CCCc3sc(N)c(C#N)c32)nc2c1n(C)c(=O)n2[C@@H]1CCCOC1)[C@@H]1CCCN1C
(III) COCCn1c(=O)n(C)c2c(O[C@@H](C)[C@@H]3CCCN3C)nc(-c3onc4c3CCC[C@@]43CCCc4sc(N)c(C#N)c43)nc21
(IV) C[C@H](Oc1nc(-c2onc3c2CCC[C@@]32CCCc3sc(N)c(C#N)c32)nc2c1n(C)c(=O)n2C12COC(C1)C2)[C@@H]1CCCN1C
Q: Thanks in advance: please rank these 4 entries by pIC50, highest to lowest. Please, when replying, give the labels in the order that was requested.
Result: I, II, IV, III
(I: 9.00, II: 8.22, IV: 7.96, III: 6.91)

(1) C[C@H](Oc1nc(-c2onc3c2CCC[C@@]32CCCc3sc(N)c(C#N)c32)nc2c1n(C)c(=O)n2[C@@]12COC[C@@H]1C2)[C@@H]1CC[C@H](C)N1C
(2) CO[C@H]1C[C@H](n2c(=O)n(C)c3c(O[C@@H](C)[C@@H]4CCCN4C)nc(-c4onc5c4CCC[C@@]54CCCc5sc(N)c(C#N)c54)nc32)C1
Q: Of 1 and 2 , which carries the smaller reported pIC50 figure? Indicate which entry you chose by stating its label.
Result: 2
(2: 6.85, 1: 8.30)

(I) C[C@H](Oc1nc(-c2onc3c2CCC[C@@]32CCCc3sc(N)c(C#N)c32)nc2c1n(C)c(=O)n2[C@@H]1CCOC1)[C@@H]1C[C@@H](F)CN1C
(II) CO[C@H]1CCN(C)[C@@H]1[C@H](C)Oc1nc(-c2noc3c2CCC[C@@]32CCCc3sc(N)c(C#N)c32)nc2c1n(C)c(=O)n2[C@@H]1CCOC1
Q: Smaller pIC50 value, I vs II ? Please respond with the label that marks your chosen entry.
Result: I

All values here come from patent US20250019385A1.
